Below: a set of entries, each annotated with reported excitability.
# Test system: Danio rerio larvae (5 dpf)
# assay-method-text: excitability (activity period 17 minus period 16, 1-s interval sound) minus DMSO control (percentage points); higher = more acoustic excitability than DMSO larvae
# test-conditions: 10 µM; exposure time: 3 h pre-incubation + 3 h imaging
Output spec: single numeric token, no unit.

{"compound": "CCCCNc1cc(C(=O)O)cc(S(N)(=O)=O)c1Oc1ccccc1 [Bumetanide]", "excitability": 7.06}
{"compound": "OCCOCCN1CCN(C2=Nc3ccccc3Sc3ccccc32)CC1 [Quetiapine hemifumarate]", "excitability": 9.04}
{"compound": "CCOc1nc2cccc(C(=O)O)c2n1Cc1ccc(-c2ccccc2-c2noc(=O)[nH]2)cc1", "excitability": 4.01}

Can you look up the measured excitability of `CC(C)CN(C[C@@H](O)[C@H](Cc1ccccc1)NC(=O)O[C@H]1CO[C@H]2OCC[C@H]21)S(=O)(=O)c1ccc(N)cc1` for me?
-0.913
